Details: in ethanol, 303.15 K
QUANTITY KIND: solubility (mole fraction)

input: Consider the compound O=C1C(CCS(=O)c2ccccc2)C(=O)N(c2ccccc2)N1c1ccccc1 (stereo unspecified) and give its recorded solubility (mole fraction).
output: 0.0045

###

Details: in isopropanol, 323.15 K
QUANTITY KIND: solubility (mole fraction)
Number, no unit, nothing else.

input: // Input: O=C1C(CCS(=O)c2ccccc2)C(=O)N(c2ccccc2)N1c1ccccc1 (stereo unspecified) . Output its solubility (mole fraction) only.
output: 0.00937

###

Settings: in acetonitrile, 303.15 K
QUANTITY KIND: solubility (mole fraction)

input: Please supply the value of reported solubility (mole fraction) for the item O=C1C(CCS(=O)c2ccccc2)C(=O)N(c2ccccc2)N1c1ccccc1 (stereo unspecified)
output: 0.0334
